Target: Test thrombin (bovine) (Bos taurus)
Construct: purchased Behring Werke, Marburg
Experiment: Thrombin time in human citrated plasma (Biomatic B10 coagulometer)
Assay type: biochemical
Conditions: concentration at which the thrombin time is double compared with the control; human citrated plasma, 0.3 U test thrombin (bovine), 37° C.
Each record here notes measured Thrombin time (ED200 in μM).
Write the number in µM without appending the unit.

Example results:
Cn1c(COc2ccc(C(=N)N)cc2)nc2cc(C(=O)N(CC(=O)O)c3ccccc3)ccc21 : 0.15
Cn1c(CCc2ccc(C(=N)N)cc2)nc2cc(C(=O)N(CCCC(=O)O)c3ccccc3)ccc21 : 0.06
N=C(N)c1ccc(NCc2nc3cc(C(=O)N(CCC(=O)O)c4ccccc4)ccc3s2)cc1 : 0.04

Q. # Thrombin time (ED200 in μM) lookup, item "Cn1c(CCc2ccc(C(=N)N)cc2)nc2cc(C(=O)N(CCc3nnn[nH]3)c3ccccc3)ccc21"
A. 0.03

Q. Here is the next molecule: "Cn1c(CNc2ccc(C(=N)N)cc2)nc2cc(C(=O)N(CC(=O)O)c3ccccn3)ccc21"
A. 0.09

Source of measurements: patent US6710055B2
